Test system: UACC-257 melanoma
Method Summary: NCI tumour cell line growth inhibition, 48 h
Measurement Name: TGI

Record TGI per entry; entries follow.
1. Cc1ccc(C(=O)CCl)o1
2. N#Cc1c(C#N)c(SSc2c(C#N)c(C#N)c(N)n2-c2ccc(F)cc2)n(-c2ccc(F)cc2)c1N
3. CC(C)=CCc1ccc2[nH]c3c(c2c1)C(=O)C(=O)C(C)=C3C(O)C(C)O (centres undefined)
4. O=C1C=Cc2c(-c3ccccc3)oc3cccc1c23

Result string:
1: > 10 µM; 2: 32.5 µM; 3: 3.71 µM; 4: > 100 µM

Record TGI per entry; entries follow.
1. Clc1ccc(C2c3ccccc3-c3nc4ccccc4n32)cc1 (centres undefined)
2. COC(=O)/C(C#N)=C1\CCC(Nc2cccc(C(F)(F)F)c2)N1C (centres undefined)
3. CCCCCCCCCC1CC(=O)Oc2cccc(O)c21 (centres undefined)
4. CCCCCCCCCCCCCCNc1nc(C(=O)OCC)ncc1-c1ccc(C(F)(F)F)cc1

Result string:
1. > 100 µM
2. > 100 µM
3. > 100 µM
4. > 100 µM

----------
Test system: TK-10 renal
Method Summary: NCI tumour cell line growth inhibition, 48 h
Measurement Name: TGI

Record TGI per entry; entries follow.
1. CCOC(=O)C(C(N)=O)c1nc2cc([N+](=O)[O-])ccc2nc1/C=C(\O)c1ccccc1 (stereo not drawn)
2. O=C1C=Cc2c(-c3ccccc3)oc3cccc1c23
3. CC(C)(C)c1ccc2c(c1)S(=O)(=O)Nc1cccc(c1)NS(=O)(=O)c1cc(C(C)(C)C)ccc1OCCOCCO2

Result string:
1: 22.9 µM; 2: > 92.2 µM; 3: > 100 µM

Record TGI per entry; entries follow.
1. O=c1[nH]cnc2c1cnn2Cc1cn(COCC(O)CO)nn1 (stereo not drawn)
2. c1cc2ccc3cc2cc1CNCCN1CCNCc2ccc4ccc(cc4c2)CNCCN(CCNC3)CCNCc2ccc3ccc(cc3c2)CNCC1
3. Cc1nnc2sc(Cc3cnc(N)s3)nn12
4. CC1(C)C(O)OC(O)C1(C)C (stereo not drawn)

Result string:
1. > 100 µM
2. 64.8 µM
3. > 100 µM
4. > 100 µM

Record TGI per entry; entries follow.
1. COc1ccc(/C=C/C(=O)Oc2ccc(/C=C3\CCCCC3=O)cc2)cc1
2. Cc1noc(NS(=O)(=O)c2ccc(NC(=O)c3ccc4[nH]c5ccccc5c(=O)c4c3)cc2)c1C
3. C/C1=C/C2OC(=O)C3(C)C2C(CC2(C)OC1=CC2=O)OC3(O)C(C)C (stereo not drawn)
4. COc1cccc(C2SCC(=O)N2c2ccc(-c3ccc(-n4c(-c5ccccc5)nc5ccccc5c4=O)cc3)cc2)c1OC (stereo not drawn)
5. CC(=O)N(C)C=C1C(=O)N(C)C(=O)N(C)C1=O
6. CC(=O)Oc1cc2c[n+](C)c3c4cc(OC(C)=O)c(OC(C)=O)cc4ccc3c2cc1OC(C)=O

Result string:
1. > 100 µM
2. > 100 µM
3. > 100 µM
4. > 100 µM
5. > 100 µM
6. > 100 µM

----------
Test system: SK-MEL-2 melanoma
Method Summary: NCI tumour cell line growth inhibition, 48 h
Measurement Name: TGI

Known results for compounds:
[
  {
    "Compound": "CN(C)CCCNC(=S)S",
    "Measurement Name": "TGI",
    "Observed Result": "> 100 µM"
  },
  {
    "Compound": "CO[C@]12C#CC=CC#C[C@@H](O)[C@]3(CCC1)O[C@@]23c1cccc(O)c1",
    "Measurement Name": "TGI",
    "Observed Result": "> 100 µM"
  },
  {
    "Compound": "C[C@]12CC[C@H](O)C[C@@H]1CC[C@@H]1[C@@H]2CC[C@]2(C)[C@@H](c3cc(C(F)(F)F)n[nH]3)CC[C@@H]12",
    "Measurement Name": "TGI",
    "Observed Result": "33.1 µM"
  }
]

Record TGI per entry; entries follow.
1. CCCCCCCCCC1CC(=O)Oc2cccc(O)c21 (stereo not given)
2. C[C@]12CC[C@@H]3c4ccc(OS(N)(=O)=O)cc4CC[C@H]3[C@@H]1CCC2=O

Result string:
> 72.7 µM
> 100 µM

All values here come from PubChem BioAssay (NCI).
